- method: Population pharmacokinetic analysis (NONMEM), second final model
- Assay type: in vivo, patients
- measurement_conditions: human, plasma, oral, fraction, read-out: F1 (bioavailability)
observation_type: bioavailability (%)
# output: bare number, implied unit %

Output bioavailability of Cc1[nH]c2ccccc2c1CCNCc1ccc(/C=C/C(=O)NO)cc1 [panobinostat]
19.4

====

- method: Population pharmacokinetic analysis (NONMEM), second final model
- Type: in vivo, patients
- measurement_conditions: human, plasma, other: intravenous and oral, fitted simultaneously, reference weight 70 kg, age 61, Caucasian
observation_type: clearance
Please don't drop the unit; write it after the number.

Output clearance of Cc1[nH]c2ccccc2c1CCNCc1ccc(/C=C/C(=O)NO)cc1
481 mL/min
